- targetOrTestSystem: glycine binding site of the NMDA receptor (Rattus norvegicus)
- measurementDescription: 1 μM glycine-stimulated [^3 H]-MK801 binding assay (glycine binding assay)
- measurementConditions: glycine/NMDA receptor; read-out: Ki value
pKi: −log10 of the molar value.
attributeMeasured: pKi

* CC(=O)ON=C1C(=O)Nc2cc(Cl)cc(Cl)c2C1=O [Compound 18b] | 6.80

---

- targetOrTestSystem: glycine binding site of the NMDA receptor (Rattus norvegicus)
- measurementDescription: 1 μM glycine-stimulated [^3 H]-MK801 binding assay (glycine binding assay)
- measurementConditions: 1 μM glycine
pIC50: −log10 of the molar value.
attributeMeasured: pIC50

* O=C1Nc2ccccc2C(=NO)C1=O [Compound 14a] | 4.74

---

- targetOrTestSystem: glycine binding site of the NMDA receptor (Rattus norvegicus)
- measurementDescription: 1 μM glycine-stimulated [^3 H]-MK801 binding assay (glycine binding assay)
attributeMeasured: Ki (nM)

* O=C1Nc2cc(Cl)c(Cl)cc2C(=O)C1=NO [Compound 17c] | 50
* O=C1Nc2ccccc2C(=O)C1=NO [Compound 17a] | 20000
* O=C1Nc2ccc(Cl)c(Cl)c2C(=O)C1=NO [Compound 17d] | 360
* O=C1Nc2cc(Cl)cc(Cl)c2C(=O)C1=NO [Compound 17b] | 20
* O=C1Nc2cc(Cl)c(Cl)c(Cl)c2C(=O)C1=NO [Compound 17e] | 50

---

- targetOrTestSystem: glycine binding site of the NMDA receptor (Rattus norvegicus)
- measurementDescription: 1 μM glycine-stimulated [^3 H]-MK801 binding assay (glycine binding assay)
- measurementConditions: Table 1, glycine binding site; read-out: Ki Gly
attributeMeasured: Ki

• CC(=O)ON=C1C(=O)Nc2cc(Cl)cc(Cl)c2C1=O [Compound 18b] = 0.15 µM
• O=C1Nc2ccccc2C(=NO)C1=O [Compound 14a] = 1.7 µM
